Hello, the source for this data is patent US9938261B2, in case you need it.

molecular target: KIT (Homo sapiens, UniProt P10721); construct: made in house; assay: Competition binding assay, KIT Kd; conditions: competition binding
Sequence (P10721 26-976): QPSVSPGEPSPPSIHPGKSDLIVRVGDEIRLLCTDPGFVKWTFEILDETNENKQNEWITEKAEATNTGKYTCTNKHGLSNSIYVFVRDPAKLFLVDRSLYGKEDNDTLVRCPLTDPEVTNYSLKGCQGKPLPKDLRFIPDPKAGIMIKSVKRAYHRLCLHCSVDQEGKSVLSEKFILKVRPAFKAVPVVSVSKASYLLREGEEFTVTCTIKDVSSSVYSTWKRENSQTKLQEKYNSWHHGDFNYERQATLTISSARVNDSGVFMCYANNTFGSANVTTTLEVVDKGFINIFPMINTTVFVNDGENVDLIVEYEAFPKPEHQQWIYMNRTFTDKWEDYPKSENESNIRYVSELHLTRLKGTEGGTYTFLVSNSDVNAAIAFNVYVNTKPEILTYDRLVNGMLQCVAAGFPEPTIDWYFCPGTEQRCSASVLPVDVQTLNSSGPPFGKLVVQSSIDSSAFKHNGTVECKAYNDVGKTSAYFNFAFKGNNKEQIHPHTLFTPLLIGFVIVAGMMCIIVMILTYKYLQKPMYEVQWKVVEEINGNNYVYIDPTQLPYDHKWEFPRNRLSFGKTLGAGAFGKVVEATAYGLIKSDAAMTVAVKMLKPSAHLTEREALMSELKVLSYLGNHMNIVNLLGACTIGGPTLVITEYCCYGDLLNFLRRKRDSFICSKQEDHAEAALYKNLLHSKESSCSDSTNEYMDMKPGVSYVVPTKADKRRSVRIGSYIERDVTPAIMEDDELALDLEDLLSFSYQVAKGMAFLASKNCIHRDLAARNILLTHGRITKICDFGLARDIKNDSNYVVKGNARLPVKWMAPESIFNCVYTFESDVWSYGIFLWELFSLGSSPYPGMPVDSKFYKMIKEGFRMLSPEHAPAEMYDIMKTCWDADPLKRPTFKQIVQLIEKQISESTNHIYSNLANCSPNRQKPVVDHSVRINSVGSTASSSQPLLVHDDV
Measured Kd, listed per entry.
observation-type: Kd

compound	target-entity	observation-type	value-observed
N#Cc1cnc2c(c1)ncn2Cc1ccc2nc(N[C@@H]3CCCC[C@H]3CO)sc2c1 [Example 140]	KIT (Homo sapiens, UniProt P10721)	Kd	500 to 2000 nM
N#Cc1ccc2ncn(Cc3ccc4nc(N[C@@H]5CCCC[C@H]5O)sc4c3)c2c1 [Example 111]	KIT (Homo sapiens, UniProt P10721)	Kd	500 to 2000 nM
O=c1c(N2CCOCC2)nccn1Cc1ccc2nc(N[C@@H]3CCCC[C@H]3O)sc2c1 [Example 222]	KIT (Homo sapiens, UniProt P10721)	Kd	> 2000 nM
O[C@@H]1CCCC[C@H]1Nc1nc2ccc(Cn3cnc4cc(I)cnc43)cc2s1 [Example 146]	KIT (Homo sapiens, UniProt P10721)	Kd	≤ 100 nM
Cc1cc(Br)cc2ncn(Cc3ccc4nc(N[C@@H]5CCCC[C@H]5O)sc4c3)c12 [Example 190]	KIT (Homo sapiens, UniProt P10721)	Kd	500 to 2000 nM
CS(=O)(=O)c1ccc2ncn(Cc3ccc4nc(N[C@@H]5CCCC[C@H]5O)sc4c3)c2c1 [Example 113]	KIT (Homo sapiens, UniProt P10721)	Kd	500 to 2000 nM
O[C@@H]1[C@H](O)CCC[C@H]1Nc1nc2ccc(Cn3cnc4cc(F)cnc43)cc2s1 [Example 193]	KIT (Homo sapiens, UniProt P10721)	Kd	≤ 100 nM
O[C@H]1[C@@H](O)CCC[C@H]1Nc1nc2ccc(Cn3cnc4cc(F)cnc43)cc2s1 [Example 228]	KIT (Homo sapiens, UniProt P10721)	Kd	500 to 2000 nM
CN1CCN(c2ccn3c(Cc4ccc5nc(N[C@@H]6CCCC[C@H]6O)sc5c4)cnc3c2)CC1 [Example 188]	KIT (Homo sapiens, UniProt P10721)	Kd	> 2000 nM
Fc1cnc2c(c1)ncn2Cc1ccc2nc(Nc3ccccc3)sc2c1 [Example 191]	KIT (Homo sapiens, UniProt P10721)	Kd	100 to 500 nM
CC(=NO)c1ccn2c(Cc3ccc4nc(N[C@@H]5CCCC[C@H]5O)sc4c3)cnc2c1 [Example 202]	KIT (Homo sapiens, UniProt P10721)	Kd	100 to 500 nM
O[C@@H]1CCCC[C@H]1Nc1nc2ccc(Cc3cnc4ccc(Br)nn34)cc2s1 [Example 177]	KIT (Homo sapiens, UniProt P10721)	Kd	≤ 100 nM
Cc1cc(C)c2c(c1)ncn2Cc1ccc2nc(N[C@@H]3CCCC[C@H]3O)sc2c1 [Example 189]	KIT (Homo sapiens, UniProt P10721)	Kd	500 to 2000 nM
C=CCOc1ccn2c(Cc3ccc4nc(N[C@@H]5CCCC[C@H]5O)sc4c3)cnc2c1 [Example 217]	KIT (Homo sapiens, UniProt P10721)	Kd	500 to 2000 nM
O[C@@H]1CCCC[C@H]1Nc1nc2ccc(Cn3cnc4cc(C(F)(F)F)ccc43)cc2s1 [Example 130]	KIT (Homo sapiens, UniProt P10721)	Kd	100 to 500 nM
C=Cc1ccc2c(c1)ncn2Cc1ccc2nc(N[C@@H]3CCC[C@@H](O)[C@H]3O)sc2c1 [Example 232]	KIT (Homo sapiens, UniProt P10721)	Kd	≤ 100 nM
O[C@@H]1CCCC[C@H]1Nc1nc2ccc(Cn3cnc4cc(C5=CCCCC5)ccc43)cc2s1 [Example 184]	KIT (Homo sapiens, UniProt P10721)	Kd	≤ 100 nM
O[C@@H]1CCCC[C@H]1Nc1nc2ncc(Cn3cnc4cccnc43)cc2s1 [Example 114]	KIT (Homo sapiens, UniProt P10721)	Kd	100 to 500 nM
CC(O)c1ccn2c(Cc3ccc4nc(N[C@@H]5CCCC[C@H]5O)sc4c3)cnc2c1 (stereo partly shown) [Example 201]	KIT (Homo sapiens, UniProt P10721)	Kd	500 to 2000 nM
